Where do the numbers come from? From patent US20260217673A1.

Below are IC50 values measured for RON (Homo sapiens, UniProt Q04912).

Solved cases below.
Record Nc1ncnc(Oc2c(F)cc(NC(=O)c3cnn(-c4ccccc4)c3C(F)(F)F)cc2F)c1Cl has RON (Homo sapiens, UniProt Q04912) IC50 equal to < 50 nM

Record N#Cc1c(Oc2c(F)cc(NC(=O)c3cnn(-c4ccccn4)c3C(F)(F)F)cc2F)ccnc1N has RON (Homo sapiens, UniProt Q04912) IC50 equal to < 50 nM

Record Nc1nccc(Oc2c(F)cc(NC(=O)c3cnn(-c4ccccc4)c3C(F)(F)F)cc2F)c1C#CCO has RON (Homo sapiens, UniProt Q04912) IC50 equal to < 50 nM

Record N#Cc1c(Oc2c(F)cc(NC(=O)c3cnn(-c4ncccn4)c3C(F)(F)F)cc2F)ccnc1N has RON (Homo sapiens, UniProt Q04912) IC50 equal to < 50 nM

Record C#Cc1c(Oc2c(F)cc(NC(=O)c3cnn(-c4ncccn4)c3C(F)(F)F)cc2F)ccnc1N has RON (Homo sapiens, UniProt Q04912) IC50 equal to < 50 nM

Next:
Record Nc1nccc(Oc2c(F)cc(NC(=O)c3cnn(-c4ccccc4)c3C(F)(F)F)cc2F)c1C1CCOCC1 has RON (Homo sapiens, UniProt Q04912) IC50 equal to < 50 nM

Record N#Cc1c(Oc2c(F)cc(NC(=O)c3cnn(-c4cccnn4)c3C(F)(F)F)cc2F)ccnc1N has RON (Homo sapiens, UniProt Q04912) IC50 equal to 50 to 500 nM

Record Nc1nccc(Oc2c(F)cc(NC(=O)c3cnn(-c4cccnn4)c3C(F)(F)F)cc2F)c1I has RON (Homo sapiens, UniProt Q04912) IC50 equal to < 50 nM

Record COCCCn1ncc(C(=O)Nc2cc(F)c(Oc3ccnc(N)c3Cl)c(F)c2)c1C(F)(F)F has RON (Homo sapiens, UniProt Q04912) IC50 equal to 50 to 500 nM

Record COCCCN1CCC(n2ncc(C(=O)Nc3cc(F)c(Oc4ccnc(N)c4Cl)c(F)c3)c2C(F)(F)F)CC1 has RON (Homo sapiens, UniProt Q04912) IC50 equal to 500 to 5000 nM

Record Nc1nccc(Oc2c(F)cc(NC(=O)c3cnn(-c4cccnn4)c3C(F)(F)F)cc2F)c1C#CCO has RON (Homo sapiens, UniProt Q04912) IC50 equal to < 50 nM

Record Nc1nccc(Oc2cc(F)c(NC(=O)c3cnn(-c4ncccc4F)c3C(F)(F)F)cc2F)c1Cl has RON (Homo sapiens, UniProt Q04912) IC50 equal to < 50 nM

Record Nc1nccc(Oc2cc(F)c(NC(=O)c3cnn(-c4ncccc4F)c3C(F)(F)F)c(F)c2)c1Cl has RON (Homo sapiens, UniProt Q04912) IC50 equal to 50 to 500 nM

Record CC(C)c1c(Oc2c(F)cc(NC(=O)c3cnn(-c4ncccc4Cl)c3C(F)(F)F)cc2F)ccnc1N has RON (Homo sapiens, UniProt Q04912) IC50 equal to < 50 nM

Record C#Cc1c(Oc2c(F)cc(NC(=O)c3cnn(-c4ncccc4Cl)c3C(F)(F)F)cc2F)ccnc1N has RON (Homo sapiens, UniProt Q04912) IC50 equal to < 50 nM

----------
TGT: UniProt Q04912
EXPERIMENT_SUMMARY: RON inhibitory activity, TR-FRET kinase assay
Assay type: biochemical
EXPERIMENTAL_CONTEXT: RON protein, ULight-labeled Poly GT substrate
Method: To measure the RON inhibitory activity of the example compounds, the IC50 of the compounds was measured using time-resolved fluorescence energy transfer (TR-FRET). Specifically, the compound was prepared at a concentration of 1 mM with 100% DMSO and serially diluted 10 times through 3-fold dilution. 2 μl of the serially diluted compound was added to a 96-well plate containing 48 μl of 1× kinase reaction buffer (50 mM HEPES (pH 7.4), 0.01% Tween-20, 5 mM DTT, 0.5 mM Na3VO4, 2 mM EGTA, 10 mM MgCl2). […]
pIC50: −log10 of the molar value.
READOUT_KIND: pIC50

Please fill in: pIC50 reported for Nc1nccc(Oc2c(F)cc(NC(=O)c3cnn(-c4ccccc4)c3C(F)(F)F)cc2F)c1CN1CCOCC1 = > 7.30

Please fill in: pIC50 reported for N#Cc1c(Oc2c(F)cc(NC(=O)c3cnn(-c4ccccc4)c3C(F)(F)F)cc2F)ccnc1N = > 7.30

Please fill in: pIC50 reported for Nc1nccc(Oc2c(F)cc(NC(=O)c3cnn(-c4ncccc4Cl)c3C(F)(F)F)cc2F)c1C1CC1 = > 7.30

Please fill in: pIC50 reported for Nc1nccc(Oc2c(F)cc(NC(=O)c3cnn(-c4cccnn4)c3C(F)(F)F)cc2F)c1C1CCOCC1 = > 7.30

Next:
Please fill in: pIC50 reported for Nc1nccc(Oc2c(F)cc(NC(=O)c3cnn(-c4ncccc4Cl)c3C(F)(F)F)cc2F)c1C1CCOCC1 = > 7.30

Please fill in: pIC50 reported for C#Cc1c(Oc2c(F)cc(NC(=O)c3cnn(-c4cccnn4)c3C(F)(F)F)cc2F)ccnc1N = > 7.30

Please fill in: pIC50 reported for Nc1nccc(Oc2c(F)cc(NC(=O)c3cnn(-c4ncccc4Cl)c3C(F)(F)F)cc2F)c1I = > 7.30

Please fill in: pIC50 reported for Nc1nccc(Oc2c(F)cc(NC(=O)c3cnn(-c4ncccc4F)c3C(F)(F)F)cc2F)c1CN1CCOCC1 = > 7.30

Please fill in: pIC50 reported for Nc1ncnc(Oc2c(F)cc(NC(=O)c3cnn(-c4ncccn4)c3C(F)(F)F)cc2F)c1Cl = > 7.30

Please fill in: pIC50 reported for Nc1nccc(Oc2c(F)cc(NC(=O)c3cnn(-c4ncccc4F)c3C(F)(F)F)cc2F)c1C1CCOCC1 = > 7.30

----------
pIC50: −log10 of the molar value.
Below are pIC50 values measured for UniProt:P08581.
Sequence (P08581 25-1390): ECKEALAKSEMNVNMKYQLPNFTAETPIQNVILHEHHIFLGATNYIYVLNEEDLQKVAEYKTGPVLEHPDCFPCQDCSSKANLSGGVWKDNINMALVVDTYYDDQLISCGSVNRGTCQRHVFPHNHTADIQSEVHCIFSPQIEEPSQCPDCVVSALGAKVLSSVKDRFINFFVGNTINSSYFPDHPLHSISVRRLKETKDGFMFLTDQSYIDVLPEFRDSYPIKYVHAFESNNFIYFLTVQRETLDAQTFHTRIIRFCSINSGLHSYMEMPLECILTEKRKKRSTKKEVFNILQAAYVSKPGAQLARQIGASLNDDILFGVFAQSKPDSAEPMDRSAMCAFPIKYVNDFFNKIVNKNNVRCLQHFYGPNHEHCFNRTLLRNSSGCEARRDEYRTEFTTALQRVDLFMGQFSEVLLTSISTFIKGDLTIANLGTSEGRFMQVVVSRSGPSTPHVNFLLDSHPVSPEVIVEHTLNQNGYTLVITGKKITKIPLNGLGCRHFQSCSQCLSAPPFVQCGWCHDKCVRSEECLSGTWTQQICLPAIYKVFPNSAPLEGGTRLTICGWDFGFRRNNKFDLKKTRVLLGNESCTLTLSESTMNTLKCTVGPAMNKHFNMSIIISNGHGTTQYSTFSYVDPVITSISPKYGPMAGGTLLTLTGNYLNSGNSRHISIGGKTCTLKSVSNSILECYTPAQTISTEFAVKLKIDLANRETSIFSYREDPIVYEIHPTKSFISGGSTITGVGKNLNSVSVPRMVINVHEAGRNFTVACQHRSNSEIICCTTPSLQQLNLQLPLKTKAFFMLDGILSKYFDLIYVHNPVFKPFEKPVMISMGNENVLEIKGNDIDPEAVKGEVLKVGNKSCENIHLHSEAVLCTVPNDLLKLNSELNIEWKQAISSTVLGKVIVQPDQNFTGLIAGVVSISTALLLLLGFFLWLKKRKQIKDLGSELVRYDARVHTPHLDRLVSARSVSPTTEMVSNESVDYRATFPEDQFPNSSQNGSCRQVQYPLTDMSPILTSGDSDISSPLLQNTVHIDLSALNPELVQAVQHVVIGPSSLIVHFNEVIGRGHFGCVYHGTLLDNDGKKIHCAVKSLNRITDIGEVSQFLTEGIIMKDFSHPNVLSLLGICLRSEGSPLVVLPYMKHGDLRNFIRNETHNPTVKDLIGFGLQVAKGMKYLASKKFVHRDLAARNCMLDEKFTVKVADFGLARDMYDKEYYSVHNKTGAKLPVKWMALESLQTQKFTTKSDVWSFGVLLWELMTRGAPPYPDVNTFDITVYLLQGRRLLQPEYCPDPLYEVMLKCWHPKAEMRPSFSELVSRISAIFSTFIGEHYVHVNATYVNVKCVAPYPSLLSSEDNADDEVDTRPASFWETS

Solved cases below.
Record Nc1nccc(Oc2cc(F)c(NC(=O)c3cnn(-c4ccccc4)c3C(F)(F)F)c(F)c2)c1Cl has UniProt:P08581 pIC50 equal to < 5.30

Record CC(C)c1c(Oc2c(F)cc(NC(=O)c3cnn(-c4ncccc4F)c3C(F)(F)F)cc2F)ccnc1N has UniProt:P08581 pIC50 equal to 5.30 to 6.30

Record Nc1nccc(Oc2c(F)cc(NC(=O)c3cnn(-c4ncccc4F)c3C(F)(F)F)cc2F)c1C1CCOCC1 has UniProt:P08581 pIC50 equal to 6.30 to 7.30

Record Nc1ncnc(Oc2c(F)cc(NC(=O)c3cnn(-c4ncccc4Cl)c3C(F)(F)F)cc2F)c1Cl has UniProt:P08581 pIC50 equal to 5.30 to 6.30

Record CC(C)c1c(Oc2c(F)cc(NC(=O)c3cnn(-c4ncccc4Cl)c3C(F)(F)F)cc2F)ccnc1N has UniProt:P08581 pIC50 equal to 5.30 to 6.30

Record Nc1nccc(Oc2c(F)cc(NC(=O)c3cnn(-c4cccnn4)c3C(F)(F)F)cc2F)c1C1CCOCC1 has UniProt:P08581 pIC50 equal to 5.30 to 6.30

Next:
Record Nc1nccc(Oc2c(F)cc(NC(=O)c3cnn(-c4ccccc4)c3C(F)(F)F)cc2F)c1I has UniProt:P08581 pIC50 equal to 5.30 to 6.30

Record Nc1nccc(Oc2c(F)cc(NC(=O)c3cnn(-c4ncccc4F)c3C(F)(F)F)cc2F)c1CN1CCOCC1 has UniProt:P08581 pIC50 equal to 5.30 to 6.30

Record Nc1nccc(Oc2c(F)cc(NC(=O)c3cnn(-c4cccnn4)c3C(F)(F)F)cc2F)c1C#CCO has UniProt:P08581 pIC50 equal to 6.30 to 7.30

----------
Below are IC50 values measured for RON (Homo sapiens, UniProt Q04912).

Record Nc1nccc(Oc2cc(F)c(NC(=O)c3cnn(-c4ccccc4)c3C(F)(F)F)cc2F)c1Cl has RON (Homo sapiens, UniProt Q04912) IC50 equal to 50 to 500 nM

Record N#Cc1c(Oc2c(F)cc(NC(=O)c3cnn(-c4ncccc4F)c3C(F)(F)F)cc2F)ccnc1N has RON (Homo sapiens, UniProt Q04912) IC50 equal to < 50 nM

Record Nc1nccc(Oc2c(F)cc(NC(=O)c3cnn(-c4ncccc4F)c3C(F)(F)F)cc2F)c1C1CC1 has RON (Homo sapiens, UniProt Q04912) IC50 equal to < 50 nM

Record Nc1nccc(Oc2cc(F)c(NC(=O)c3cnn(-c4ccccc4)c3C(F)(F)F)c(F)c2)c1Cl has RON (Homo sapiens, UniProt Q04912) IC50 equal to 500 to 5000 nM

Record CC(C)c1c(Oc2c(F)cc(NC(=O)c3cnn(-c4ncccc4F)c3C(F)(F)F)cc2F)ccnc1N has RON (Homo sapiens, UniProt Q04912) IC50 equal to < 50 nM

Then this compound:
Record Nc1nccc(Oc2c(F)cc(NC(=O)c3cnn(-c4ccccc4)c3C(F)(F)F)cc2F)c1Cl has RON (Homo sapiens, UniProt Q04912) IC50 equal to < 50 nM
